system: Cucumber; assay: Postemergence herbicidal activity, % control of plant growth; type: in vivo; details: Cucumis sativus, post-emergence, 264 h, 8 lb/acre, about 11 days

{"Molecule": "O=c1[nH]c2cccnc2c(=O)n1C1CCCCCCC1", "pest or weed control at 8966.8 g/ha, %": 100}
{"Molecule": "CCn1c(=O)[nH]c2cccnc2c1=O", "pest or weed control at 8966.8 g/ha, %": 50}
{"Molecule": "CC(C)n1c(=O)[nH]c2nccnc2c1=O", "pest or weed control at 8966.8 g/ha, %": 10}
{"Molecule": "CCC(C)n1c(=O)[nH]c2nccnc2c1=O (centres unmarked)", "pest or weed control at 8966.8 g/ha, %": 60}
{"Molecule": "CCCn1c(=O)[nH]c2cccnc2c1=O", "pest or weed control at 8966.8 g/ha, %": 100}
{"Molecule": "CCCCn1c(=O)[nH]c2cccnc2c1=O", "pest or weed control at 8966.8 g/ha, %": 100}
{"Molecule": "CCC(C)n1c(=O)[nH]c2cccnc2c1=O (centres unmarked)", "pest or weed control at 8966.8 g/ha, %": 100}
{"Molecule": "CCCCC(CC)Cn1c(=O)[nH]c2cccnc2c1=O (centres unmarked)", "pest or weed control at 8966.8 g/ha, %": 20}
{"Molecule": "O=c1[nH]c2nccnc2c(=O)n1C1CCCCCCC1", "pest or weed control at 8966.8 g/ha, %": 100}
{"Molecule": "O=c1[nH]c2cccnc2c(=O)n1C1CC1", "pest or weed control at 8966.8 g/ha, %": 20}
{"Molecule": "O=c1[nH]c(=O)c2ncccc2[nH]1 [pyrido[3,2-d]pyrimidine-2,4(1H,3H)-dione, reference compound]", "pest or weed control at 8966.8 g/ha, %": 0}
